Tested on: P388
Experiment: Cytotoxicity against mouse P388 cells assessed as growth inhibition after 48 hrs by coulter particle counter analysis
Assay type: functional
Conditions: P388, 48 h, read-out: ED50 (the source's name)
Measurement name: EC50

Recorded results for 2 compounds are shown here.
INSERT INTO measurements (compound, endpoint_result) VALUES
  ('CC(=O)O[C@H]1CC[C@@]2(C)[C@@H](CC[C@@H]3[C@@H]2CC(=O)[C@@]2(C)[C@H]3C[C@@H]3OC(CCC(C)CCl)=C(C)[C@@H]32)C1 (stereo partly drawn)', '> 100 µg/mL'),
  ('CC1=C(CCC(C)CCl)O[C@H]2C[C@H]3[C@@H]4CC[C@H]5CC(=O)CC[C@]5(C)[C@H]4CC(=O)[C@]3(C)[C@@H]12 (stereo partly drawn)', '> 100 µg/mL');

*Q* Please report the measured EC50 for "CC(=O)OC[C@]1(C)CC[C@@]2(O[C@H]3C[C@H]4[C@@H]5CC[C@H]6CC(=O)CC[C@]6(C)[C@H]5CC(=O)[C@]4(C)[C@H]3[C@@H]2C)O1" tested on P388.
*A* > 10 µg/mL
